Target chain: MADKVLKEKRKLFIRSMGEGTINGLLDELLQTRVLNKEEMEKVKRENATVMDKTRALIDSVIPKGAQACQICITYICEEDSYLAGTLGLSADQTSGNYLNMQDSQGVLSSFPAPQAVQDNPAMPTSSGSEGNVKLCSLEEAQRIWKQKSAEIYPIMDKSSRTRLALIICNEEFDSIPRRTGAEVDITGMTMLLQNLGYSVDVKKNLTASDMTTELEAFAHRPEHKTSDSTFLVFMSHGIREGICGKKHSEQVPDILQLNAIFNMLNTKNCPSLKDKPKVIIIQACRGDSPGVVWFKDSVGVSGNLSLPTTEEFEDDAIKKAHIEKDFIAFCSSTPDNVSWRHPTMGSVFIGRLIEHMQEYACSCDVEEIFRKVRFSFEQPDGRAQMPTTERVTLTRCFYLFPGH
pIC50: −log10 of the molar value.
Note to self: these compounds have pIC50 reported for the protein given by its sequence in various publications.
The threshold is inclusive: pIC50 of exactly 7 counts as label 1; values below receive label 0.

COMPOUND	ASSIGNED_LABEL
O=C1C[C@H](NC(=O)[C@@H]2CN(C(=O)Nc3ccccc3)C[C@@H]3CCCC[C@H](NC(=O)c4ccccc4)C(=O)N32)C(O)O1 (stereo partly specified)	label 1
O=C1C[C@H](NC(=O)[C@@H]2CCC[C@@H]3CCC[C@H](NC(=O)OCc4ccccc4)C(=O)N32)C(O)O1 (stereo partly specified)	label 1
NC(=O)c1cc(-c2ccncc2)cnc1Cl	label 0
CC[C@@H](C(=O)NC(CC(=O)O)C(=O)CNCCc1ccccc1)n1cccc(NC(=O)c2ccc3ccccc3c2)c1=O (stereo partly specified)	label 1
Cc1cccc(C(=O)NNC(=O)C2(C(=O)N[C@H]3CC(=O)OC3O)CCCCC2)c1 (stereo partly specified)	label 0
CCO[C@@H]1OC(=O)C[C@@H]1NC(=O)[C@@H]1CCCN2C(=O)CC[C@H](NC(=O)c3nccc4ccccc34)C(=O)N12	label 1
O=C(CN1CCCN(C(=O)c2ccccc2)C[C@H](NC(=O)c2nccc3ccccc23)C1=O)N[C@H]1CC(=O)OC1O (stereo partly specified)	label 1
O=C(CN1CC=CC[C@H](NC(=O)c2cc3ccccc3s2)C1=O)N[C@H]1CC(=O)OC1O (stereo partly specified)	label 1
O=C1C(=O)N(Cc2ccc(F)cc2)c2ccc(S(=O)(=O)N3CC[C@H]3COc3ccccc3)cc21	label 0
O=C1C(=O)N(Cc2ccc(F)cc2)c2ccc(S(=O)(=O)N3CCC[C@H]3COc3ccccc3)cc21	label 0
O=C1C[C@H](NC(=O)[C@@H]2CNC[C@@H]3CCCC[C@H](NC(=O)c4nccc5ccccc45)C(=O)N32)C(O)O1 (stereo partly specified)	label 1
COc1ccc(C(=O)NCC2=CC[C@H](NC(=O)c3ccc4ccccc4c3)C(=O)N(CC(=O)N[C@H]3CC(=O)OC3O)C2)cc1 (stereo partly specified)	label 1
COC[C@@H]1CCCN1S(=O)(=O)c1ccc2c(c1)C(=O)C(=O)N2C	label 0
CC(C)[C@H](NC(=O)OCc1ccccc1)C(=O)N[C@@H](C)C(=O)N[C@@H](CC(=O)O)C(=O)CCCCCc1ccccc1	label 0
CN(C)C(=O)c1cc(-c2ccncc2)nnc1Cl	label 0

---

Note to self: these molecules have pIC50 reported for Caspase-1 (Homo sapiens) in various publications.
pIC50: −log10 of the molar value.

MOLECULE	CENSORING_QUALIFIER	pIC50
CC(C)[C@H](NC(=O)OCc1ccccc1)C(=O)N[C@@H](C)C(=O)NC(CC(=O)O)C(=O)COC(=O)CCc1ccccc1 (some centres not stated)	=	8.72
CC(C)[C@H](CC(=O)NCCC(=O)c1ccccc1)C(=O)N[C@H](C=O)CC(=O)O	=	6.40
CC(C)[C@H](CC(=O)N1CCN(c2ccccc2)CC1)C(=O)N[C@H](C=O)CC(=O)O	=	5.11
O=C(CN1CCSC[C@H](NC(=O)c2ccc3ccccc3c2)C1=O)N[C@H]1CC(=O)OC1O (some centres not stated)	=	7.52
O=C1C[C@H](NC(=O)[C@@H]2COC[C@@H]3CCCC[C@H](NC(=O)c4cc5ccccc5s4)C(=O)N32)C(O)O1 (some centres not stated)	=	9.00
C[C@H](C(=O)N[C@H]1CC(=O)OC1O)N1CC=CC[C@H](NC(=O)c2ccc3ccccc3c2)C1=O (some centres not stated)	=	7.89
COC[C@@H]1CCCN1S(=O)(=O)c1ccc2c(c1)C(=O)C(=O)N2	<	4.82

---

Molecular target: UniProt:P29466
Sequence (P29466 whole entry): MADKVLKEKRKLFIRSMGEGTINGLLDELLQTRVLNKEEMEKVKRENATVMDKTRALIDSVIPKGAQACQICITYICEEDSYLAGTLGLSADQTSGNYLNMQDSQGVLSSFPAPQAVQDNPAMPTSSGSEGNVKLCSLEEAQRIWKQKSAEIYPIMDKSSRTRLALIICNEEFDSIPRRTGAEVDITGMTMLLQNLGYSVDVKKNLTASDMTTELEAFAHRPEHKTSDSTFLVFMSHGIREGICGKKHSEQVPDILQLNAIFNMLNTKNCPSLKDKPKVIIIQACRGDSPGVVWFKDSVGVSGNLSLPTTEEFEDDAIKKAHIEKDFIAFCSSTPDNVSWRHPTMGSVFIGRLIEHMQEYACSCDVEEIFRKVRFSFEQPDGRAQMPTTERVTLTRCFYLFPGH
Note to self: these compounds have IC50 reported for UniProt:P29466 in various publications.

COMPOUND	UNIT_INFO	CENSORING_QUALIFIER	IC50
COC[C@@H]1CCCN1S(=O)(=O)c1ccc2c(c1)C(=O)C(=O)N2Cc1ccc(I)cc1	µM	>	10
O=C1Nc2ccc(S(=O)(=O)N3CCC[C@H]3COc3cccnc3)cc2C1=O	µM	>	5
Cc1ccc(S(=O)(=O)OCCOc2ccc(CN3C(=O)C(=O)c4cc(S(=O)(=O)N5CCC[C@H]5COc5ccccc5)ccc43)cc2)cc1	µM	>	500
C[C@@H](C(=O)N[C@H]1CC(=O)OC1O)N1CC=CC[C@H](NC(=O)c2ccc3ccccc3c2)C1=O (some centres undefined)	µM	=	0.001
CC(C)CC(NCC(O)CC(=O)O)c1nnnn1CCCC(=O)N1CCc2ccccc2C1 (centres undefined)	µM	=	79.4
O=C(O)CC(NC(=O)OCc1ccccc1)C(=O)CCCCCc1ccccc1 (centres undefined)	µM	=	1030
COC[C@@H]1CCCN1S(=O)(=O)c1ccc2c(c1)C(=O)C(=O)N2Cc1ccc(OCCF)cc1	µM	>	25
CCCCCCN(C)CC(=O)C(CC(=O)O)NC(=O)[C@H](CC)n1cc(C(C)(C)C)nc(NCc2nonc2C)c1=O (some centres undefined)	µM	=	0.067
COc1ccccc1C(=O)NCC1=CC[C@H](NC(=O)c2ccc3ccccc3c2)C(=O)N(CC(=O)N[C@H]2CC(=O)OC2O)C1 (some centres undefined)	µM	=	0.002

---

pIC50: −log10 of the molar value.
Note to self: these compounds have pIC50 reported for Caspase-1 (Homo sapiens, UniProt P29466) in various publications.

STRUCTURE_AS_SMILES	TESTED_SYSTEM	pIC50
O=C1C(=O)N(Cc2ccc(OCCBr)cc2)c2ccc(S(=O)(=O)N3CCC[C@H]3COc3ccccc3)cc21	Caspase-1 (Homo sapiens, UniProt P29466)	< 3.30
O=C1C(=O)N(Cc2ccccc2)c2ccc(S(=O)(=O)N3CC[C@H]3COc3ccccc3)cc21	Caspase-1 (Homo sapiens, UniProt P29466)	< 5.00
CSc1nnc(-c2ccncc2)cc1C(N)=O	Caspase-1 (Homo sapiens, UniProt P29466)	< 3.60

---

Target: Caspase-1 (Homo sapiens, UniProt P29466)
Sequence (P29466 whole entry): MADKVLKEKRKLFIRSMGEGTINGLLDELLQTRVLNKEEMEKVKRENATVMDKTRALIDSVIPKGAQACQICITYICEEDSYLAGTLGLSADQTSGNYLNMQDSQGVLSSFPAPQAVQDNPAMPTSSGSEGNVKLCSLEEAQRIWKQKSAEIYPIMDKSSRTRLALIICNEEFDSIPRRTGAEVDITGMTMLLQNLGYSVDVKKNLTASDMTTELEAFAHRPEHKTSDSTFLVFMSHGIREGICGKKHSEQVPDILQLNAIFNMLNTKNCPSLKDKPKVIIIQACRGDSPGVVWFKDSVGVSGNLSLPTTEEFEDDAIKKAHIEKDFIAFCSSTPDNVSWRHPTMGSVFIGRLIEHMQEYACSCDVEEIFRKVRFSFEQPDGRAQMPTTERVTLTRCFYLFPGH
Note to self: these molecules have IC50 reported for Caspase-1 (Homo sapiens, UniProt P29466) in various publications.
MEASURED_QUANTITY: IC50

STRUCTURE_AS_SMILES	MEASURED_QUANTITY	RESULT
NC(=O)c1cnnc(-c2ccncc2)c1	IC50	> 250 µM
O=C1C(=O)N(Cc2cccc(F)n2)c2ccc(S(=O)(=O)N3CC[C@H]3COc3ccccc3)cc21	IC50	> 10 µM
O=C1C(=O)N(Cc2ccc(OCCF)cc2)c2ccc(S(=O)(=O)N3CCC[C@H]3COc3ccccc3)cc21	IC50	> 500 µM
CC(=O)Oc1ccc(CN2C(=O)C(=O)c3cc(S(=O)(=O)N4CCC[C@H]4COc4ccccc4)ccc32)cc1	IC50	> 50 µM
COc1ccc(CN2C(=O)C(=O)c3cc(S(=O)(=O)N4CCC[C@H]4COc4ccccc4)ccc32)cc1	IC50	> 10 µM
